MEASURED_TARGET: SMARCA4-HiBiT (Homo sapiens, UniProt P51532)
Construct: SMARCA4-HiBiT knock-in Hela monoclonal cell (CS3023226); host or cells: HeLa monoclonal knock-in line (CRISPR HiBiT knock-in at the endogenous locus, heterozygous)
Sequence (P51532 whole entry): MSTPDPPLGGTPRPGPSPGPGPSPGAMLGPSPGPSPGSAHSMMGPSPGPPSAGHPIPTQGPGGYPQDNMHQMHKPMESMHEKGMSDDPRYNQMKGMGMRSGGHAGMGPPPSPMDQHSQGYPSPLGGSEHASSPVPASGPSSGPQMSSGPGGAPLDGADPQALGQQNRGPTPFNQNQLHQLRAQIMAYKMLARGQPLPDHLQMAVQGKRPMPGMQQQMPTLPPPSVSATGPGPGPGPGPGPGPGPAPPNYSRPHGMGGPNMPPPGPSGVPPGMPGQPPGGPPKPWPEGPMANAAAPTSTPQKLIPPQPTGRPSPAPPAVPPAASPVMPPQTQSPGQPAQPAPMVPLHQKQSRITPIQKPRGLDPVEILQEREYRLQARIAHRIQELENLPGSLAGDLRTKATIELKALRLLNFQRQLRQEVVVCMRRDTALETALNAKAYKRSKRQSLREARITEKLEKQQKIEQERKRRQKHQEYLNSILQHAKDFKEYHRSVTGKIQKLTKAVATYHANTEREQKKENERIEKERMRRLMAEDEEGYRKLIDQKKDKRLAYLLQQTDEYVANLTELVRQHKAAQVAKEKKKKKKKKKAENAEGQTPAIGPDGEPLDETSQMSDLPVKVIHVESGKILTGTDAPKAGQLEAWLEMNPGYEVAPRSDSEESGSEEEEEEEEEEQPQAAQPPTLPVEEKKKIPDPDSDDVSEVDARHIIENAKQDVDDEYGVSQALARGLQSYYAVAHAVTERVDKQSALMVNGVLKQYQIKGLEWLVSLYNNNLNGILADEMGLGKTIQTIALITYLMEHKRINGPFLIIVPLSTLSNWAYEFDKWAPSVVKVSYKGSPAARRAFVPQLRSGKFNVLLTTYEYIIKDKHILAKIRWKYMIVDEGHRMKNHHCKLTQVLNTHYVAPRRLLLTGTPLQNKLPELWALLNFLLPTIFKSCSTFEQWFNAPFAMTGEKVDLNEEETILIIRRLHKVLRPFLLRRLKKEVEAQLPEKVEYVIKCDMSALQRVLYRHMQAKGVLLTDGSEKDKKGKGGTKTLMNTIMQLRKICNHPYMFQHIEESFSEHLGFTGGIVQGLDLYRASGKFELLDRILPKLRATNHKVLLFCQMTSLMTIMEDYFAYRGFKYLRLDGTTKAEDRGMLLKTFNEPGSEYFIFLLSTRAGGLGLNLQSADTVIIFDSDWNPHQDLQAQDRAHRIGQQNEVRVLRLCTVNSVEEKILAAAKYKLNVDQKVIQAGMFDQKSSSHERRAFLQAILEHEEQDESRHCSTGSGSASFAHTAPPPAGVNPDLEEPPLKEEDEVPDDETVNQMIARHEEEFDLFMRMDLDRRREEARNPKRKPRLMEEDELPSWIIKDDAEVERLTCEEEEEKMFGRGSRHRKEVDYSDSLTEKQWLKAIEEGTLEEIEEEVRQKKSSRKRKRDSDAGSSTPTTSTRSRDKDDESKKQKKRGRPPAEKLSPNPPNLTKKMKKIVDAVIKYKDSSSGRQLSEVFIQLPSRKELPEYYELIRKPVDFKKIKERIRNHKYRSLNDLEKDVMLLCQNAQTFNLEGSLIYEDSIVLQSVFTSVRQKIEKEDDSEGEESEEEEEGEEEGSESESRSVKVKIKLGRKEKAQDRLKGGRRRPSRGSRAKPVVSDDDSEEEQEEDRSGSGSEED
ASSAY_NOTES: SMARCA4 HiBiT degradation assay in HeLa cells
Assay type: cell-based
EXPERIMENTAL_PARAMETERS: HeLa, 18 hours incubation, read-out: HeLa-HiBit-SM4 Dmax (%)
MEASURED_PARAMETER: Dmax

Examples with answers:
## Input Please report the measured Dmax for O=C1CCC(N2C(=O)c3ccc(N4CC[C@@H]5CN(C6CCC(C(=O)N7CCN8c9cc(-c%10ccccc%10O)nnc9NC[C@H]8C7)CC6)C[C@H]5C4)cc3C2=O)C(=O)N1 (stereo partly shown)
## Output 50 to 75%

## Input Supply recorded Dmax for O=C1CCC(N2C(=O)c3ccc(N4CCO[C@@H](CN5C[C@@H]6[C@H](C5)[C@H]6CN5CCN6c7cc(-c8ccccc8O)nnc7NC[C@H]6C5)C4)cc3C2=O)C(=O)N1 (stereo partly shown) here.
## Output 50 to 75%

## Input Look up Dmax of O=C1CCC(N2Cc3cc(N4CCC(CN5CCC(CN6CCN7c8cc(-c9ccccc9O)nnc8NC[C@H]7C6)CC5)CC4)c(F)cc3C2=O)C(=O)N1 (stereo partly shown) and report it.
## Output > 85%

## Input In one line, give reported Dmax of the entry O=C1CCC(N2Cc3cc(N4CCC(CN5CCC(CN6CCN7c8cc(-c9ccccc9O)nnc8NC[C@H]7C6)CC5)CC4)ccc3C2=O)C(=O)N1 (stereo partly shown) .
## Output > 85%

Continuing:
## Input Return the recorded Dmax value; entry: O=C1CCC(N2C(=O)c3ccc(N4CCC(CN5CCC(CN6CCN7c8cc(-c9ccccc9O)nnc8NC[C@H]7C6)CC5)CC4)cc3C2=O)C(=O)N1 (stereo partly shown)
## Output > 85%

## Input Dear colleague, please send me the reported Dmax for CC1CC(C(=O)N2CCN3c4cc(-c5ccccc5O)nnc4NC[C@H]3C2)CCN1CC1CCN(c2ccc3c(c2)C(=O)N(C2CCC(=O)NC2=O)C3)CC1 (stereo partly shown) when you can.
## Output 75 to 85%

## Input Tell me measured Dmax for O=C1CCC(N2C(=O)c3ccc(N4CCC(CN5CCC(CN6CCN7c8cc(-c9ccccc9O)nnc8NC[C@H]7C6)CC5)CC4)cc3C2=O)C(=O)N1COC(=O)C1(O)CC1 (stereo partly shown) please.
## Output > 85%

## Input State its Dmax for this compound: COC1(CN2C[C@@H]3[C@@H](CN4CCN5c6cc(-c7ccccc7O)nnc6NC[C@H]5C4)[C@@H]3C2)CCN(c2ccc3c(c2)C(=O)N(C2CCC(=O)NC2=O)C3=O)CC1 (stereo partly shown)
## Output 50 to 75%

## Input Look up and report measured Dmax for this entry: CC1CN(CC2CCN(c3ccc4c(c3)C(=O)N(C3CCC(=O)NC3=O)C4=O)CC2)CC(C)N1C(=O)N1CCN2c3cc(-c4ccccc4O)nnc3NC[C@H]2C1 (stereo partly shown)
## Output 75 to 85%

## Input Specify reported Dmax for the compound shown: O=C1CCC(N2C(=O)c3ccc(N4CCC(CN5CCC(O)(CN6CCN7c8cc(-c9ccccc9O)nnc8NC[C@H]7C6)CC5)CC4)cc3C2=O)C(=O)N1 (stereo partly shown)
## Output > 85%

====

MEASURED_TARGET: SMARCA2-HiBiT (Homo sapiens)
Construct: SMARCA2-HiBiT knock-in Hela monoclonal cell (CS302366); host or cells: HeLa monoclonal knock-in line (CRISPR HiBiT knock-in at the endogenous locus, heterozygous)
Sequence (P51531 whole entry): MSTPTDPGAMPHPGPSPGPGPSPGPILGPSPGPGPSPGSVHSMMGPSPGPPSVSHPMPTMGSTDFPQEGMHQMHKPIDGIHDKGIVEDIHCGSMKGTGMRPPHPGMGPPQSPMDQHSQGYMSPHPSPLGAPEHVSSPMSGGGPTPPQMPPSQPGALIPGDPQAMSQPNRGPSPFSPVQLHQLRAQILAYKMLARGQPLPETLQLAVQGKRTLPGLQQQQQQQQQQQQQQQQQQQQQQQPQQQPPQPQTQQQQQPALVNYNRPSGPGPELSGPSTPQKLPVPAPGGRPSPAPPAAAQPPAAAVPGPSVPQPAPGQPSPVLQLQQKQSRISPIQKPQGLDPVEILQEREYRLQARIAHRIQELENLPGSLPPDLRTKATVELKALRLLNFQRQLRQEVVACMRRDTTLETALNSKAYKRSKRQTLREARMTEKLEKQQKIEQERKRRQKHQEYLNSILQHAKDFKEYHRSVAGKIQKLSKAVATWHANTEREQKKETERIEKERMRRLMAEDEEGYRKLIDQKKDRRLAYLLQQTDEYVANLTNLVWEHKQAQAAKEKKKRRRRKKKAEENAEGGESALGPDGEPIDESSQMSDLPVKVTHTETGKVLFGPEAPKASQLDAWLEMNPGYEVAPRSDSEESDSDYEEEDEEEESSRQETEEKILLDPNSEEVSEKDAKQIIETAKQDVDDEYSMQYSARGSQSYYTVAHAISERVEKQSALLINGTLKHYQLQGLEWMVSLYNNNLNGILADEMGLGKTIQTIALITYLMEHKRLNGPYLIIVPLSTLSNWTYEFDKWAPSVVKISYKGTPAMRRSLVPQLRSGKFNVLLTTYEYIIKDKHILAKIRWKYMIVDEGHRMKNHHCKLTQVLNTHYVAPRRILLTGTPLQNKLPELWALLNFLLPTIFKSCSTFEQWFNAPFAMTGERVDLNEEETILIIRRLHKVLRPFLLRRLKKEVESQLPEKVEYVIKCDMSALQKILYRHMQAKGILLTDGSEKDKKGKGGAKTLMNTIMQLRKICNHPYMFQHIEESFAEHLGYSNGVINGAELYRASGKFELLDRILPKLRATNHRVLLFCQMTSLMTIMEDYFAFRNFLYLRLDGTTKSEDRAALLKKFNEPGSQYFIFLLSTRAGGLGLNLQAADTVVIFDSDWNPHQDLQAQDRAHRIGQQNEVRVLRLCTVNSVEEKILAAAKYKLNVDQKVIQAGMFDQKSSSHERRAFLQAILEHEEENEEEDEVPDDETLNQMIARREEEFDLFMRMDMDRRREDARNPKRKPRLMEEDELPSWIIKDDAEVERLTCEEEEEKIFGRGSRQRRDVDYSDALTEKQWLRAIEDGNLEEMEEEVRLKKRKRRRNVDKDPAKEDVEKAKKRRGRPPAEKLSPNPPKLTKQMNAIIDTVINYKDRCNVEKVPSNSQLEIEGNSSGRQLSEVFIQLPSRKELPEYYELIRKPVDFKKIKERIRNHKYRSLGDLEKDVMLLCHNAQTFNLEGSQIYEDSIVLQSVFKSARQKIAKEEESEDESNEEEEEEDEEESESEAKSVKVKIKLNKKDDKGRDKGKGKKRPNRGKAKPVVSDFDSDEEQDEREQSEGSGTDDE
ASSAY_NOTES: SMARCA2 HiBiT degradation assay in HeLa cells
Assay type: cell-based
EXPERIMENTAL_PARAMETERS: HeLa, 18 hours incubation, read-out: HeLa-HiBit-SM2 Dmax (%)
MEASURED_PARAMETER: Dmax

These recorded examples may help you get a feel for the data.
## Input Give the reported value of Dmax for this record: O=C1CCC(N2C(=O)c3ccc(N4CCOC(CN5C[C@@H]6[C@H](C5)[C@H]6CN5CCN6c7cc(-c8ccccc8O)nnc7NC[C@H]6C5)C4)cc3C2=O)C(=O)N1 (some centres unmarked) [Example 49]
## Output > 85%

## Input Identify measured Dmax corresponding to O=C1CCC(N2Cc3cc(N4CCC(CN5CCC(CN6CCN7c8cc(-c9ccccc9O)nnc8NC[C@H]7C6)CC5)CC4)c(F)cc3C2=O)C(=O)N1 (some centres unmarked) [Example 234]
## Output > 85%

## Input Supply reported Dmax belonging to this molecule: O=C1CCC(N2C(=O)c3ccc(CN4CCC(CN5CCC(CN6CCN7c8cc(-c9ccccc9O)nnc8NC[C@H]7C6)CC5)CC4)cc3C2=O)C(=O)N1 (some centres unmarked) [Example 187]
## Output 50 to 75%

## Input Give the reported value of Dmax for this record: CN(CCCN1CCN2c3cc(-c4ccccc4O)nnc3NC[C@H]2C1)CC1CCN(c2ccc3c(c2)C(=O)N(C2CCC(=O)NC2=O)C3=O)CC1 (some centres unmarked) [Example 40]
## Output 50 to 75%

## Input Supply measured Dmax of O=C1CCC(N2C(=O)c3cc(F)c(N4CCC(CN5C[C@@H]6[C@H](C5)[C@H]6CN5CCN6c7cc(-c8ccccc8O)nnc7NC[C@H]6C5)CC4)cc3C2=O)C(=O)N1 (some centres unmarked) [Example 173] in your reply.
## Output 75 to 85%

## Input For O=C1CCC(N2C(=O)c3ccc(N4CC[C@@H](CN5C[C@@H]6[C@H](C5)[C@H]6CN5CCN6c7cc(-c8ccccc8O)nnc7NC[C@H]6C5)[C@H](F)C4)cc3C2=O)C(=O)N1 (some centres unmarked) [Example 200] , write its Dmax.
## Output 75 to 85%

## Input For the molecule O=C1CCC(N2C(=O)c3ccc(N4CCC(N[C@H]5C[C@H](CN6CCN7c8cc(-c9ccccc9O)nnc8NC[C@H]7C6)C5)CC4)cc3C2=O)C(=O)N1 (some centres unmarked) [Example 77] , give its reported Dmax.
## Output > 85%

## Input Query Dmax for C[C@@H]1C[C@H](CN2C[C@@H]3[C@H](C2)[C@H]3CN2CCN3c4cc(-c5ccccc5O)nnc4NC[C@H]3C2)CCN1c1cc2c(cc1F)C(=O)N(C1CCC(=O)NC1=O)C2=O (some centres unmarked) [Example 176]
## Output > 85%

## Input Specify Dmax for O=C1CCC(N2C(=O)c3ccc(N4CCC(CN5CCc6cnc(N7CCN8c9cc(-c%10ccccc%10O)nnc9NC[C@H]8C7)nc6C5)CC4)cc3C2=O)C(=O)N1 (some centres unmarked) [Example 60] and stop.
## Output ≤ 50%

## Input // fetch Dmax given entry O=C1CCC(N2C(=O)c3ccc(N4CCC(F)(CN5C[C@@H]6[C@@H](CN7CCN8c9cc(-c%10ccccc%10O)nnc9NC[C@H]8C7)[C@@H]6C5)CC4)cc3C2=O)C(=O)N1 (some centres unmarked) [Example 149]
## Output 50 to 75%

Next:
## Input Write down Dmax measured for item C[C@@H]1C[C@H](CN2CCC(CN3CCN4c5cc(-c6ccccc6O)nnc5NC[C@H]4C3)CC2)CCN1c1cc2c(cc1F)C(=O)N(C1CCC(=O)NC1=O)C2=O (some centres unmarked) [Example 174]
## Output > 85%

## Input Please give the documented Dmax of O=C1CCC(n2c3ccc(CCCN4CCC(N5CCN(C6C[C@@H]7CNc8nnc(-c9ccccc9O)cc8N7C6)CC5)CC4)cc3c3cccnc32)C(=O)N1 (some centres unmarked) [Example 27]
## Output 50 to 75%

## Input Tell me Dmax reported for CC1(CN2C[C@@H]3[C@@H](CN4CCN5c6cc(-c7ccccc7O)nnc6NC[C@H]5C4)[C@@H]3C2)CCN(c2ccc3c(c2)C(=O)N(C2CCC(=O)NC2=O)C3=O)CC1 (some centres unmarked) [Example 91]
## Output > 85%

## Input Supply Dmax value. Item: O=C1CCC(N2C(=O)c3cc(F)c(N4CCN(CC5CCN(C(=O)N6CCN7c8cc(-c9ccccc9O)nnc8NC[C@H]7C6)CC5)CC4)cc3C2=O)C(=O)N1 (some centres unmarked) [Example 263]
## Output ≤ 50%

====

MEASURED_TARGET: SMARCA4-HiBiT (Homo sapiens)
Construct: SMARCA4-HiBiT knock-in Hela monoclonal cell (CS3023226); host or cells: HeLa monoclonal knock-in line (CRISPR HiBiT knock-in at the endogenous locus, heterozygous)
ASSAY_NOTES: SMARCA4 HiBiT degradation assay in HeLa cells
Format: cell-based
EXPERIMENTAL_PARAMETERS: HeLa, 18 hours incubation, read-out: HeLa-HiBit-SM4 Dmax (%)
MEASURED_PARAMETER: Dmax

In the examples that follow, each entry is paired with its recorded Dmax.
## Input Assign Dmax to the following record: O=C1CCC(N2C(=O)c3ccc(N4CCC(CCN5C[C@@H]6[C@H](C5)[C@H]6CN5CCN6c7cc(-c8ccccc8O)nnc7NC[C@H]6C5)CC4)cc3C2=O)C(=O)N1 (stereo partly shown)
## Output 50 to 75%

## Input Answer with the recorded Dmax of O=C1CCC(N2Cc3ccc(N4CCC(CN5CCN(C(=O)N6CCN7c8cc(-c9ccccc9O)nnc8NC[C@H]7C6)CC5C(F)(F)F)CC4)cc3C2=O)C(=O)N1 (stereo partly shown) only.
## Output 75 to 85%

## Input Return the recorded Dmax value; entry: O=C1CCC(N2Cc3ccc(N4CCN(CCCN5CCC(CN6CCN7c8cc(-c9ccccc9O)nnc8NC[C@H]7C6)CC5)CC4)cc3C2=O)C(=O)N1 (stereo partly shown)
## Output 75 to 85%

## Input Return the recorded Dmax value; entry: O=C1CCC(N2C(=O)c3ccc(N4CCC(F)(CN5CCC(CN6CCN7c8cc(-c9ccccc9O)nnc8NC[C@H]7C6)CC5)CC4)cc3C2=O)C(=O)N1 (stereo partly shown)
## Output 75 to 85%

## Input Give a short answer stating reported Dmax for O=C1CCC(N2C(=O)c3ccc(N4CC[C@H](CN5C[C@@H]6[C@H](C5)[C@H]6CN5CCN6c7cc(-c8c(O)cccc8F)nnc7NC[C@H]6C5)[C@@H](F)C4)cc3C2=O)C(=O)N1 (stereo partly shown) .
## Output ≤ 50%

New cases:
## Input Output Dmax of O=C1CCC(N2Cc3cc(C4CCN(C5CCN(CCCN6CCN7c8cc(-c9ccccc9O)nnc8NC[C@H]7C6)CC5)CC4)ccc3C2=O)C(=O)N1 (stereo partly shown)
## Output > 85%

## Input Retrieve Dmax measured for CC12CNc3nnc(-c4ccccc4O)cc3N1CCN(C1CCN(CCCc3ccc4c(c3)c3cccnc3n4C3CCC(=O)NC3=O)CC1)C2 (stereo not shown) and print it.
## Output 75 to 85%

## Input Respond only with Dmax recorded for O=C1CCC(N2C(=O)c3ccc(Oc4ccc(N5CCC(N6CCN7c8cc(-c9ccccc9O)nnc8NC[C@H]7C6)CC5)cc4)cc3C2=O)C(=O)N1 (stereo partly shown)
## Output 75 to 85%

## Input Could you please provide reported Dmax for O=C1CCC(N2C(=O)c3ccc(N4CCN(CC5CCN(C(=O)N6CCN7c8cc(-c9ccccc9O)nnc8NC[C@H]7C6)CC5)CC4)cc3C2=O)C(=O)N1 (stereo partly shown) ? Thanks!
## Output 50 to 75%

## Input Identify the reported Dmax for the following entry. O=C1CCC(N2Cc3cc(N4CCC(CNC56CCC(C(=O)N7CCN8c9cc(-c%10ccccc%10O)nnc9NC[C@H]8C7)(CC5)CC6)CC4)ccc3C2=O)C(=O)N1 (stereo partly shown)
## Output 75 to 85%

Taken from patent US12448389B2.
